Listed below: half-life values for each entry.
Experiment: Elimination Half life in Sprague-Dawley rat at 25 mg/kg, IG
Format: ADME, organism-based
Details: in vivo, po, read-out: beta t1/2 (converted)
Entry rule: numbers only, all in h.

half-life recorded for this compound, CC(=O)Oc1ccccc1C(=O)Nc1ncc([N+](=O)[O-])s1 [NITAZOXANIDE] , is 0.8

Now look at this one.
half-life recorded for this compound, O=C(Nc1ncc([N+](=O)[O-])s1)c1ccc(C(F)(F)F)cc1 , is 11.1
